target: human mAChR M4 (Homo sapiens); construct: expressed in transfected cells; assay: mAChR M4 cell-based functional assay (calcium mobilization, CHO-K1 hM4-Gqi5 cells); details: CHO-K1, % ACh maximum at 30 μM; human M4
MEASUREMENT_LABEL: Emax at 30 µM (%)
Express it in %; write the number only.

Recorded Emax at 30 µM, per entry:
Cc1c(C(=O)NCc2ccncc2)nnc(N2CCc3ncc(C(F)(F)F)cc3C2)c1C :: 98
Cc1cc(C#N)cnc1N1CCc2ncc(Nc3cccc(C(F)(F)F)c3F)cc2C1 :: 98
Cc1cc(C#N)nnc1N1CCc2ncc(-c3ccc(C4CC4)nc3)cc2C1 :: 73

Quote Emax at 30 µM reported for Cc1cc(C(=O)NCc2ccc(N3CCOCC3)nc2)cnc1N1CCc2ncc(-c3cn(C)nc3C)cc2C1 please.
76

Quote Emax at 30 µM reported for Cc1cc(C(=O)NC2CC(F)(F)C2)cnc1N1CCc2ncc(-c3cn(C)nc3C)cc2C1 please.
67

Quote Emax at 30 µM reported for Cc1cc(CNC(=O)c2cnc(N3CCc4ncccc4C3)c(C)c2)ccn1 please.
61

Quote Emax at 30 µM reported for Cc1cc(Nc2cnc3c(c2)CN(c2nnc(C#N)cc2C)CC3)c(F)cn1 please.
89

Quote Emax at 30 µM reported for Cc1cc(C(=O)N2CC(C)(C#N)C2)nnc1N1CCc2ncc(N3CCCn4nccc43)cc2C1 please.
80

Quote Emax at 30 µM reported for Cc1cc(Nc2cnc3c(c2)CN(c2ncc(C#N)cc2C)CC3)n(CCC(C)C)n1 please.
42

Quote Emax at 30 µM reported for Cc1cc(C#N)nnc1N1CCc2ncc(-c3cn(C)nc3C)cc2C1 please.
86

Quote Emax at 30 µM reported for Cc1nc(C)c(C)c(N2CCc3ncc(-c4cn(C)nc4C)cc3C2)n1 please.
77

Quote Emax at 30 µM reported for Cc1cc(C(=O)NCc2cncs2)nnc1N1CCc2ncc(CC(F)(F)F)cc2C1 please.
94

Quote Emax at 30 µM reported for Cc1c(C#N)nnc(N2CCc3ncc(-c4cc(F)nc(F)c4)cc3C2)c1C please.
58

Quote Emax at 30 µM reported for Cc1ncc(CNC(=O)c2cnc(N3CCc4ncccc4C3)c(C)c2)s1 please.
67

Quote Emax at 30 µM reported for Cc1cc(C(=O)N2CC3(C2)CC(F)(F)C3)nnc1N1CCc2ncc(N3CCCn4nccc43)cc2C1 please.
83

Quote Emax at 30 µM reported for Cc1cc(C(=O)N2CCc3cccnc3C2)nnc1N1CCc2ncc(C(F)(F)F)cc2C1 please.
92

Quote Emax at 30 µM reported for Cc1nc(Cl)c(C)c(N2CCc3ncc(Oc4ccc5c(c4)OCCO5)cc3C2)n1 please.
77

----------
target: human mAChR M4 (Homo sapiens, UniProt P08173); construct: expressed in transfected cells; assay: mAChR M4 cell-based functional assay (calcium mobilization, CHO-K1 hM4-Gqi5 cells); details: positive allosteric modulator activity, increase in the EC20 acetylcholine response, CHO-K1 hM4-Gqi5 cells; read-out: Human M4 EC50
MEASUREMENT_LABEL: EC50 (nM)
Express it in nM; write the number only.

Cc1cc(F)ncc1-c1cnc2c(c1)CN(c1ncc(C(=O)NCc3ccncc3)cc1C)CC2 :: 101
Cc1nc(C(F)(F)F)nc(N2CCc3ncc(C(F)(F)F)cc3C2)c1C :: 1030
Cc1cc(C#N)cnc1N1CCc2ncc(N3CCC(C)n4nccc43)cc2C1 (stereo not shown) :: 76
Cc1nc(N2CCCC2)nc(N2CCc3ncc(Nc4ccnn4C)cc3C2)c1C :: 92
Cc1cc(C(=O)N2CC(F)C2)nnc1N1CCc2ncc(-n3cccn3)cc2C1 :: 161

Quote EC50 reported for Cc1cc(C(=O)NCC(C)(C)O)cnc1N1CCc2ncc(-c3cn(C)nc3C)cc2C1 please.
4100

Quote EC50 reported for Cc1cc(C#N)cnc1N1CCc2ncc(-n3nccc3C)cc2C1 please.
341

Quote EC50 reported for Cc1nn(C)cc1-c1cnc2c(c1)CN(c1nc(NC3CC3)nc(C)c1C)CC2 please.
466

Quote EC50 reported for Cc1ccc(F)c(Nc2cnc3c(c2)CN(c2ncc(C#N)cc2C)CC3)c1 please.
995

Quote EC50 reported for Cc1nc(C)c(-c2cnc3c(c2)CN(c2ncc(C#N)cc2C)CC3)s1 please.
106

Quote EC50 reported for COC1(C)CN(C(=O)c2cc(C)c(N3CCc4ncc(N5CCCn6nccc65)cc4C3)nn2)C1 please.
22

Quote EC50 reported for Cc1cc(C#N)nnc1N1CCc2ncc(Nc3ccnn3C)cc2C1 please.
239

Quote EC50 reported for Cc1c(C#N)nnc(N2CCc3ncc(Nc4ccccc4OC(F)(F)F)cc3C2)c1C please.
1880

Quote EC50 reported for COC1CN(C(=O)c2cc(C)c(N3CCc4ncc(N5CCCn6nccc65)cc4C3)nn2)C1 please.
25

Quote EC50 reported for Cc1cc(C#N)cnc1N1CCc2ncc(Oc3cc(F)ccc3F)cc2C1 please.
160

Quote EC50 reported for [2H]C1([2H])Cc2ncc(Nc3ccncc3F)cc2C([2H])([2H])N1c1nnc(C#N)c(C)c1C please.
4

Quote EC50 reported for Cc1cc(C(=O)NCc2cccnc2)cnc1N1CCc2ncc(-c3cn(C)nc3C)cc2C1 please.
576

Quote EC50 reported for Cc1cc(C(=O)N2CC(F)C2)nnc1N1CCc2ncc(N3CCO[C@H](C)C3)cc2C1 please.
51

Quote EC50 reported for [2H]C([2H])(NC(=O)c1cc(C)c(N2CCc3ncc(C(F)(F)F)cc3C2)nn1)c1cscn1 please.
43

Quote EC50 reported for Cc1cc(C#N)nnc1N1CCc2ncc(C3CC3)cc2C1 please.
111

----------
Molecular target: human mAChR M4 (Homo sapiens)
Construct: expressed in transfected cells
Sequence (P08173 1-479): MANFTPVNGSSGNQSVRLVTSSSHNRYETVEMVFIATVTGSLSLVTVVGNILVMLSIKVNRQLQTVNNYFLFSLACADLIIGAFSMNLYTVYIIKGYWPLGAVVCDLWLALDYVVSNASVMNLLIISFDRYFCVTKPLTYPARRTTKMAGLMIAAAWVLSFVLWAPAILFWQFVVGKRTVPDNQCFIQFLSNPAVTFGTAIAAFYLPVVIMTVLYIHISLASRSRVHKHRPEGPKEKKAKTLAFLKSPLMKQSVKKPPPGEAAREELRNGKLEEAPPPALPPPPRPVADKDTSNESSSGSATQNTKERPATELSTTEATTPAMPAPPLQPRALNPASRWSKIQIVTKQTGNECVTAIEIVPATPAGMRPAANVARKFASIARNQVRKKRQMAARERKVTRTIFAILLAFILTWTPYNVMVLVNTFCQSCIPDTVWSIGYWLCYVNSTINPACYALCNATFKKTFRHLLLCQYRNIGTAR
Assay: mAChR M4 cell-based functional assay (calcium mobilization, CHO-K1 hM4-Gqi5 cells)
Settings: positive allosteric modulator activity, increase in the EC20 acetylcholine response, CHO-K1 hM4-Gqi5 cells; read-out: Human M4 EC50
The label is Fulfilled for EC50 below 1000 nM and Not fulfilled for EC50 equal to or exceeding 1000 nM.

Worked examples, 3 molecules total:
Cc1cc(C#N)cnc1N1CCc2ncc(C(C)(O)C(F)(F)F)cc2C1 (centres unmarked) [Example 426] :: Fulfilled
Cc1c(Cl)nc(C(F)(F)F)nc1N1CCc2ncc(Nc3cccnc3F)cc2C1 [compound 249] :: Not fulfilled
Cc1cc(C(=O)NCc2ccc(S(C)(=O)=O)cc2)cnc1N1CCc2ncccc2C1 [compound 143] :: Not fulfilled

In the record for CCCCn1nc(C)cc1Nc1cnc2c(c1)CN(c1ncc(C#N)cc1C)CC2 [Example 315] , is EC50 less than 1000 nM?
Fulfilled

In the record for Cc1cc(C(=O)N2CC(C(F)F)C2)nnc1N1CCc2ncc(Nc3ccnn3C)cc2C1 [Example 558] , is EC50 less than 1000 nM?
Fulfilled

In the record for COc1cc(-c2cnc3c(c2)CN(c2ncc(C#N)cc2C)CC3)c(Cl)cn1 [Example 341] , is EC50 less than 1000 nM?
Not fulfilled

In the record for Cc1cc(C(=O)N2CC3(COC3)C2)nnc1N1CCc2ncc(Nc3ccnn3C)cc2C1 [Example 561] , is EC50 less than 1000 nM?
Fulfilled

----------
target: human mAChR M4 (Homo sapiens, UniProt P08173); construct: expressed in transfected cells; experiment: mAChR M4 cell-based functional assay (calcium mobilization, CHO-K1 hM4-Gqi5 cells); settings: positive allosteric modulator activity, increase in the EC20 acetylcholine response, CHO-K1 hM4-Gqi5 cells; read-out: Human M4 EC50
// reported pEC50 per item
Bear in mind: pEC50 is minus log10 of a mol/L concentration; give just that figure.

Cc1cc(C(=O)Nc2ccncc2)cnc1N1CCc2ncccc2C1 :: 6.26
COc1ccc(-c2cnc3c(c2)CN(c2nc(C)nc(C)c2C)CC3)cn1 :: 6.55
Cc1cc(C#N)cnc1N1CCc2ncc(Nc3c(F)cccc3Cl)cc2C1 :: 6.46
FC(F)(F)c1cnc2c(c1)CN(c1nc(C3CC3)nc3c1CCC3)CC2 :: 5.83

Quote pEC50 reported for [2H]C([2H])(NC(=O)c1cc(C)c(N2CCc3ncc(N4CCCn5nccc54)cc3C2)nn1)c1cscn1 please.
7.89

Quote pEC50 reported for Cc1cc(C#N)cnc1N1Cc2cc(N3CCOCC3)cnc2C(C)C1 (single isomer, unassigned) [Example 406] please.
6.49

Quote pEC50 reported for Cc1nc(Cl)c(C)c(N2CCc3ncc(Nc4ccc(F)cc4F)cc3C2)n1 please.
6.09

Quote pEC50 reported for Cc1cc(C#N)cnc1N1CCc2ncc(-c3ccnc(C#N)c3)cc2C1 please.
6.59

Quote pEC50 reported for Cc1cc(C(=O)N(C)Cc2ccncc2)nnc1N1CCc2ncc(C(F)(F)F)cc2C1 please.
5.55

Quote pEC50 reported for Cc1cc(C(=O)NCc2cscn2)cnc1N1CCc2ncc(-c3ccc(C4CC4)nc3)cc2C1 please.
6.75

Quote pEC50 reported for Cc1nc(Cl)c(C)c(N2CCc3ncc(-c4cncs4)cc3C2)n1 please.
7.01

Quote pEC50 reported for Cc1cc(C#N)nnc1N1CCc2ncc(Oc3ccccc3F)cc2C1 please.
7.19

Quote pEC50 reported for Cc1cc(C#N)cnc1N1CCc2ncc(N3CC(C)Cn4nccc43)cc2C1 (centres unmarked) please.
6.73
